Below: a set of entries, each annotated with reported pKi.
target.system: Mu-type opioid receptor (Homo sapiens, UniProt P35372)
Sequence (P35372 whole entry): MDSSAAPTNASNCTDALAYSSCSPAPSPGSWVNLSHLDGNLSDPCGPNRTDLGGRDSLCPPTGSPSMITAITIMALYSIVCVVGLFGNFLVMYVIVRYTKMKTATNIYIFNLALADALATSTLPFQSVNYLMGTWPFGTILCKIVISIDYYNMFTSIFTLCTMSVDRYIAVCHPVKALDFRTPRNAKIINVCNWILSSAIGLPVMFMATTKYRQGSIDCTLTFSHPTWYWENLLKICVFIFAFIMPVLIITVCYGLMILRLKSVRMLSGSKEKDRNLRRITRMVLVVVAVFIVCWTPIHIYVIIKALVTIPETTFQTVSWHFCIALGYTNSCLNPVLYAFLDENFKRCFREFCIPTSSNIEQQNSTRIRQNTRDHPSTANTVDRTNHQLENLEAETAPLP
protocol.details: Antagonist activity at human mu opioid receptor expressed in CHO cells assessed as [35S]GTPgammaS binding by SPA
Note on pKi: it is the negative log10 of concentration, concentration in mol/L.

[
  {
    "record.smiles": "NC(=O)c1ccc2c(c1)CCCN2c1cccc(CNCCC2=CCCCC2)c1",
    "pKi": 7.30
  },
  {
    "record.smiles": "CC(C)(C)CCNCc1ccc(N2CCCc3cc(C(N)=O)ccc32)cc1",
    "pKi": 7.30
  }
]

Report value: pKi, system: Mu-type opioid receptor (Homo sapiens, UniProt P35372), compound: `NC(=O)c1ccc2c(c1)CCCN2c1ccc(CNC2Cc3ccccc3C2)c(C(F)(F)F)c1`
7.30

meta.source: ChEMBL document CHEMBL1641476
